Assay: Binding affinity to Aquifex aeolicus sodium-coupled leucine transporter
pKd: −log10 of the molar value.

{"columns": ["record.smiles", "pKd"],
 "data": [
  ["CC(C)C[C@H](N)C(=O)O", 7.70]
]}

====

Assay: Inhibition of L-[3H]Leu uptake at Aquifex aeolicus sodium-coupled leucine transporter
pIC50: −log10 of the molar value.

{"columns": ["record.smiles", "pIC50"],
 "data": [
  ["CN(C)CCCN1c2ccccc2CCc2ccc(Cl)cc21", 3.60]
]}
